# target_of_assay: T1, human serum albumin (human, UniProt P02768 25-609)
# T1 construct: mature; Bought purified serum albumin; also called HSA; Human albumin
# run_description: SPR, Fab captured; albumin taken as HSA;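 also: antibody held on a capture surface, albumin injected for 3 min association then dissociation followed, signals corrected using a blank reference flow cell and buffer-only injections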
quantity_name: kon (M⁻¹ s⁻¹)
Report the figure in M⁻¹ s⁻¹ without appending any unit label.

Examples from the recorded data:
CA645 gL4gH39 Fab (Fab, V domains shown, Fab: human gamma1 CH1, human kappa (Km3); Kabat numbering) VH: EVQLLESGGGLVQPGGSLRLSCAVSGIDLSNYAINWVRQAPGKGLEWIGIIWASGTTFYATWAKGRFTISRDNSKNTVYLQMNSLRAEDTAVYYCARTVPIYSTAPYFDLWGQGTLVTVSS VL: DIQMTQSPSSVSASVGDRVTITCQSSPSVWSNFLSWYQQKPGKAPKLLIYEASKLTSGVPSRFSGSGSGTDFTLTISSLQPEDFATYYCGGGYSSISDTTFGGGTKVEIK ... 53500
CA645 gL4gH29 Fab (Fab, V domains shown, Fab: human gamma1 CH1, human kappa (Km3); Kabat numbering) VH: EVQLLESGGGLVQPGGSLRLSCAVSGIDLSNYAINWVRQAPGKGLEWIGIIWSSGTTFYATWAKGRFTISRDNSKNTVYLQMNSLRAEDTAVYYCARTVPGYSTAPYFDLWGQGTLVTVSS VL: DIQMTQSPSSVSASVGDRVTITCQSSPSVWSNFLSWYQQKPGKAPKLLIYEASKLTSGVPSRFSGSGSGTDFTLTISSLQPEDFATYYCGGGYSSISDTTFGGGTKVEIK ... 47700

// next entry
Q: Would you mind telling me what kon value was observed for CA645 gL12gH5 Fab (Fab, V domains shown, Fab: human gamma1 CH1, human kappa (Km3); Kabat numbering) VH: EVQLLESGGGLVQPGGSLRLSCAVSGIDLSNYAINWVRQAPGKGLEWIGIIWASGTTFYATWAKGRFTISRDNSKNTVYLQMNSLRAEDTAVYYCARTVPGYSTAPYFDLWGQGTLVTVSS VL: DIQMTQSPSSVSASVGDRVTITCQSSPDVWSNFLSWYQQKPGKAPKLLIYEASKLTSGVPSRFSGSGSGTDFTLTISSLQPEDFATYYCGGGYSSISDTTFGGGTKVEIK ?
Result: 55400

Cited source for all entries: patent US20190144529A1
